Origin of values: patent US8178668B2

The following compounds have recorded pIC50 on MET (human) (Homo sapiens, UniProt P08581).
Sequence (P08581 25-1390): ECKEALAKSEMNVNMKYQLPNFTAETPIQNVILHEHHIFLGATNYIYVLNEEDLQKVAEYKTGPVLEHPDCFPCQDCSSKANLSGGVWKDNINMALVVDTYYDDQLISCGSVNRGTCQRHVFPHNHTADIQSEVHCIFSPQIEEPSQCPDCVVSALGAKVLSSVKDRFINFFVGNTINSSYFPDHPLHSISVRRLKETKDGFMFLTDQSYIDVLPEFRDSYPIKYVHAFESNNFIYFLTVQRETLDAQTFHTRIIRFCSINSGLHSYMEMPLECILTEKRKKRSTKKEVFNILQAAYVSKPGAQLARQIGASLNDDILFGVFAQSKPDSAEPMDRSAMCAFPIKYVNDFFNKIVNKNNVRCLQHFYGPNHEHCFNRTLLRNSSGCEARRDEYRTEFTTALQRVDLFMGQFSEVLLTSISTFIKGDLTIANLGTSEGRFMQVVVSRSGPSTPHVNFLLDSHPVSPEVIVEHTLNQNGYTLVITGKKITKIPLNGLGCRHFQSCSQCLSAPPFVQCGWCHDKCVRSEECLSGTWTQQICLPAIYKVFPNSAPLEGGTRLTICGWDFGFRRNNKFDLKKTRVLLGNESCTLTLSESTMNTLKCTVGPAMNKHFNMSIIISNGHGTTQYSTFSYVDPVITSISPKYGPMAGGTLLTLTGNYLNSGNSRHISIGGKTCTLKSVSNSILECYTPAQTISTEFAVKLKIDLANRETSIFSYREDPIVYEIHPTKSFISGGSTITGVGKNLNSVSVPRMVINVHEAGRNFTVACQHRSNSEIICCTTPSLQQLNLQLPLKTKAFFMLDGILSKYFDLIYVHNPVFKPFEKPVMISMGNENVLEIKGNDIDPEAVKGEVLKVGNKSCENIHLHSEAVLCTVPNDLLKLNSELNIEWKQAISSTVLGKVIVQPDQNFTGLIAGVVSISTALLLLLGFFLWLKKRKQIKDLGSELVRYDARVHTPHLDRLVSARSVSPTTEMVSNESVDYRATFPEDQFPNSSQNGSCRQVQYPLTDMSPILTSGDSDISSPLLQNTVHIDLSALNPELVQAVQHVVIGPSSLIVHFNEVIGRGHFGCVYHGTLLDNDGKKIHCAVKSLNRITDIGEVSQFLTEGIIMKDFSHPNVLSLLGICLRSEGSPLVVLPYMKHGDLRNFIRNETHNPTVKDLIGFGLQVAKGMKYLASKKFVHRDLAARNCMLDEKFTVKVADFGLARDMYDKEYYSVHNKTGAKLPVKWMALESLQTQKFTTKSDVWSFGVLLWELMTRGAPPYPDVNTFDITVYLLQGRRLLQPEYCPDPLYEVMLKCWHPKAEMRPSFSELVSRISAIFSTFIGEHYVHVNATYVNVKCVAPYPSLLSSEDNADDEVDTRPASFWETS
pIC50: −log10 of the molar value. Counter-ions that a name gives are not always drawn.
measurement_type: pIC50

> print(dat)
                                   compound  observed.value
1  CC(C(=O)N1CCOCC1)n1cc(-c2cnc(N)c(-c3nc4ccccc4s3)c2)cn1 (stereo not shown)    4.70 to 6.00
2  Nc1ncc(-c2cnn(C3CCNCC3)c2)cc1-c1cc2ccccc2o1 [Example 92, dihydrochloride]    6.00 to 7.00
3  Nc1ncc(-c2cn[nH]c2)cc1-c1cc2c(Cl)ccc(F)c2cn1    4.70 to 6.00
4  Cn1cc(-c2cnc(N)c(-c3cc4c(Cl)ccc(F)c4cn3)c2)cn1 [Example 65, bis-hydrochloride]    4.70 to 6.00

* * *

Where a name gives a salt, the structure may show the parent alone.
Hi! I'm sharing some IC50 results obtained with RON (human) (Homo sapiens).
Sequence (Q04912 25-1400): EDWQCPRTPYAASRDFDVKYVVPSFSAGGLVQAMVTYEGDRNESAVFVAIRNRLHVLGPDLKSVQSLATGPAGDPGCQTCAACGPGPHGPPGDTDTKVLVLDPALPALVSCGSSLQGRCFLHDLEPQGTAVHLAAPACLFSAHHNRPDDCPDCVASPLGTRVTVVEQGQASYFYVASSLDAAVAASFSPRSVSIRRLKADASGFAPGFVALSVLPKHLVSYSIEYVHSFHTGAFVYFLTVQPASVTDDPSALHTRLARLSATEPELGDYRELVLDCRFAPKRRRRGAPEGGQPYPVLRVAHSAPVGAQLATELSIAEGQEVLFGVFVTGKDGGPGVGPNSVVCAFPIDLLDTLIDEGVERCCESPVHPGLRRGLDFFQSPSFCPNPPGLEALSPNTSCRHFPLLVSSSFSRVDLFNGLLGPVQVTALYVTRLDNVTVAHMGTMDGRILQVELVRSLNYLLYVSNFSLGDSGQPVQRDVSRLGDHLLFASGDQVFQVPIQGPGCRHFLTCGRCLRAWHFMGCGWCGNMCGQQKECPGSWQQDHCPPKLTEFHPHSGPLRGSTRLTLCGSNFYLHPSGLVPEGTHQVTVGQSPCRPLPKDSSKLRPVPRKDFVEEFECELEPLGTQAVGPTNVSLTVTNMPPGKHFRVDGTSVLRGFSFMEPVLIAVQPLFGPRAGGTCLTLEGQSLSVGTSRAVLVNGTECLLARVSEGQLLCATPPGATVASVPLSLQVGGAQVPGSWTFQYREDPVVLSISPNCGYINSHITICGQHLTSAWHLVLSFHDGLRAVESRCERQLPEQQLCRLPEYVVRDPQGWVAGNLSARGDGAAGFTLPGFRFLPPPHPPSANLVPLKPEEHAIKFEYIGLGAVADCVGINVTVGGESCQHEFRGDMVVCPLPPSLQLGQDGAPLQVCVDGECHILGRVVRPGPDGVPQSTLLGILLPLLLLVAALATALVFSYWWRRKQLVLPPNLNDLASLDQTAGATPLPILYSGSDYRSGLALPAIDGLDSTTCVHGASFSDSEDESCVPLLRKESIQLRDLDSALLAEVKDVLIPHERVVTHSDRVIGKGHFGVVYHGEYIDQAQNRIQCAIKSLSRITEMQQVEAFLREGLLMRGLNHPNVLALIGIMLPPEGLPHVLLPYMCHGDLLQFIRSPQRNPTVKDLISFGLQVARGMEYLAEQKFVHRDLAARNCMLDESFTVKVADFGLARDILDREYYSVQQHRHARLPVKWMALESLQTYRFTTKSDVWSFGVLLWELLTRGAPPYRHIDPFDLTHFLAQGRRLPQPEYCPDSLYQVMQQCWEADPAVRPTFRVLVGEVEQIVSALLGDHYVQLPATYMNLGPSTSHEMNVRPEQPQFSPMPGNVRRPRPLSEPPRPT
measurement_type: IC50

> print(dat)
                                    compound  measurement.type  observed.value
 1  Nc1ncc(-c2cnn(C3CCNCC3)c2)cc1-c1cc2c(Cl)cccc2cn1 [Example 42, trihydrochloride]              IC50     0.1 to 1 µM
 2  Nc1ncc(-c2cnn(C3CCNCC3)c2)cc1-c1cc2cc(O)ccc2cn1 [Example 28, trihydrochloride salt]              IC50      1 to 20 µM
 3  CN(C)C(=O)[C@@H]1C[C@H](n2cc(-c3cnc(N)c(-c4cc5c(Cl)ccc(F)c5cn4)c3)cn2)CN1 [Example 71]              IC50     0.1 to 1 µM
 4  Nc1ncc(-c2cnn([C@H]3CCNC3)c2)cc1-c1cc2ccccc2o1 [Example 100, dihydrochloride]              IC50     0.1 to 1 µM
 5  Nc1ncc(-c2ccsc2)cc1-c1cc2c(Cl)ccc(F)c2cn1 [Example 76]              IC50         > 20 µM
 6  Nc1ncc(-c2cnn(C3CCNCC3)c2)cc1-c1nc2cccc(Cl)c2s1 [Example 259]              IC50        ≤ 0.1 µM
 7  Nc1ncc(-c2cnn(C3CCNCC3)c2)cc1-c1cc2c(-c3cncs3)ccc(F)c2cn1 [Example 56, trihydrochloride]              IC50     0.1 to 1 µM
 8  Nc1ncc(-c2cnn(C3CCNCC3)c2)cc1-c1cc2ccccc2o1 [Example 92, dihydrochloride]              IC50      1 to 20 µM
 9  Nc1ncc(-c2cnn(C3CCNCC3)c2)cc1-c1nc2cc(OC(F)(F)F)ccc2s1 [Example 281]              IC50     0.1 to 1 µM
10  Nc1ncc(-c2cccc(C(=O)NCCCn3ccnc3)c2)cc1-c1nc2ccccc2s1 [Example 223]              IC50      1 to 20 µM
11  Cc1ccc(F)c2cnc(-c3cc(-c4cnn(C5CCNCC5)c4)cnc3N)cc12 [Example 6, trihydrochloride]              IC50     0.1 to 1 µM
12  CN(C)C(=O)[C@H]1C[C@H](n2cc(-c3cnc(N)c(-c4nc5ccccc5s4)c3)cn2)CN1 [Example 175]              IC50     0.1 to 1 µM
13  Nc1ncc(-c2cnn([C@@H]3CN[C@H](C(=O)O)C3)c2)cc1-c1nc2ccccc2s1 [Example 154]              IC50     0.1 to 1 µM
14  CN1C2CCC1CC(n1cc(-c3cnc(N)c(-c4nc5ccccc5s4)c3)cn1)C2 (stereo not drawn) [Example 109]              IC50        ≤ 0.1 µM
15  Nc1ncc(-c2cnn(C3CCN(CC(=O)N4CCC(O)C4)CC3)c2)cc1-c1nc2ccccc2s1 (stereo not drawn) [Example 167]              IC50     0.1 to 1 µM
